- System: SF-295
- assay-comment: NCI tumour cell line growth inhibition, 48 h
Calls of active or inactive are those of the source. No stated cut-off is given here; in the data, active = GI50 up to about 1.1 µM and inactive = higher.
metric-name: GI50

Please review the following examples before continuing.
* C/C(=N/NC(=S)Nc1ccc([N+](=O)[O-])cc1)c1cccc(/C(C)=N\NC(=S)Nc2ccc([N+](=O)[O-])cc2)n1 | 0.564 µM (active)
* COC(=O)CNS(=O)(=O)c1ccc(-c2c3nc(c(-c4ccc(S(=O)(=O)NCC(=O)OC)cc4)c4ccc([nH]4)c(-c4ccc(S(=O)(=O)NCC(=O)OC)cc4)c4nc(c(-c5ccc(S(=O)(=O)NCC(=O)OC)cc5)c5ccc2[nH]5)C=C4)C=C3)cc1 | > 100 µM (inactive)
* CC(C)=CC(=O)N1CCN(C(=O)C=C(C)C)CC1 | > 100 µM (inactive)

I have this molecule here, `O=C1Nc2ccccc2C(=O)/C1=C/NC(=S)NCCc1ccccc1` , and I need its recorded GI50.
> 100 µM (inactive)

Try the molecule `Nc1nc(Cl)cc(NCC2(CCO)CCC2)n1`
> 10 µM (inactive)

Try the molecule C[C@]12CCC3c4ccc(O)cc4CC[C@H]3C1CC(=O)NC2=O (stereo partly drawn)
> 10 µM (inactive)

Try the molecule COc1ccc(/C=C/c2cc(O)cc(OC3OC(CO)C(O)C(O)C3O)c2)cc1O (stereo not drawn)
51.8 µM (inactive)

Try the molecule COc1ccc(N2C(=O)C(Cl)C2c2cc3cc(Br)ccc3nc2Cl)cc1 (stereo not drawn)
11.9 µM (inactive)

====

- Test system: RXF 631
- assay-comment: NCI tumour cell line growth inhibition, 48 h
The source made the active and inactive calls. Cut-off read from the data, not from the text of the source: active = GI50 up to about 1.1 µM and inactive = higher.
Here the recorded GI50 is given for each entry.

Please review the following examples before continuing.
* NC(=O)c1cc([N+](=O)[O-])cc([N+](=O)[O-])c1 [NITROMIDE] | > 100 µM (inactive)
* CC(C)=CC(=O)N1CCN(C(=O)C=C(C)C)CC1 | > 100 µM (inactive)
* CC(=O)NNc1nc(C)c(C(/C=C/c2ccc(Cl)cc2)=N\NS(=O)(=O)c2ccc(C)cc2)s1 | > 100 µM (inactive)

I have this molecule here, CC(=O)OC1COC(N2CCc3ccccc32)C(OC(C)=O)C1OC(C)=O (configuration not stated) , and I need its recorded GI50.
> 100 µM (inactive)

Try the molecule COC(=O)CCC(NC(=S)N/N=C(\C)c1nccs1)C(=O)OC (configuration not stated)
58.2 µM (inactive)

Try the molecule `COC(=O)c1sc(=O)n(-c2ccccc2)c1SCc1ccccc1`
> 100 µM (inactive)

Try the molecule COc1cccc2c1C(=O)c1c(O)c3c(c(O)c1C2=O)CC(O)(C(C)=O)CC3OC1CC([N+](C)(C)C)C(O)C(C)O1 (configuration not stated)
31.1 µM (inactive)

Try the molecule CC(C)[C@H](CCl)NC(=O)c1cccc(C(=O)N[C@H](CCl)C(C)C)n1 (stereo in doubt)
> 100 µM (inactive)

Try the molecule `COc1ccc(N(CC(=O)O)S(=O)(=O)c2ccccc2)cc1`
> 100 µM (inactive)

Try the molecule `Clc1cc2ns[s+]c2cc1Cl`
60.3 µM (inactive)

Try the molecule O=C1C2C3CC(C4C5C=CC(C5)C34)C2C2C3CC(C12)C1C2C=CC(C2)C31 (configuration not stated)
> 100 µM (inactive)

Try the molecule COC(=O)[C@]1(C)CCC[C@@]2(C)C1CCC1=CC3(C(C)C)CCC12OO3 (some centres not stated)
> 100 µM (inactive)

====

- System: 786-0
- assay-comment: NCI tumour cell line growth inhibition, 48 h
The source made the active and inactive calls. Cut-off read from the data, not from the text of the source: active = GI50 up to about 1.1 µM and inactive = higher.
Tick one outcome: active, inactive

Answered cases to consult:
• Cc1nnc2nc(-c3ccc(Cl)cc3Cl)cc(-c3ccc(Cl)cc3)n12 = inactive
• CCOc1ccc(N/C(=C(/C(Cl)=C(/Cl)Nc2ccccc2)[N+](=O)[O-])n2nnc3ccccc32)cc1 = inactive
• O=C1C(N2CCNCC2)=C(Cl)C(=O)c2ncccc21 = inactive

Outcome logged for `Oc1nc(-c2ccc3ccccc3c2)nc2ccccc12` in this assay:
inactive

Try the molecule `N#Cc1nnn(-c2ccc(Br)cc2)c1O`
inactive

Try the molecule `CSC1(SC2=NCCN2)SC2(NCCN2)S1`
inactive

Try the molecule Cc1ccc(S(=O)(=O)NC(=O)NC(CCC(N)=O)C(=O)O)cc1 (stereo not drawn)
inactive

Try the molecule `CCOC(CN(C)C(=O)Nc1ccc(Cl)c(Cl)c1)OCC`
inactive

====

- Test system: KM12
- assay-comment: NCI tumour cell line growth inhibition, 48 h
The source made the active and inactive calls. Rule as the data show it: active = GI50 up to about 1.1 µM and inactive = higher.
Tick one outcome: active, inactive

• C[C@]12CCC3c4ccc(O)cc4CC[C@H]3C1CC(=O)NC2=O (some centres not stated) = inactive
• C/C(=N\Nc1ccccc1Br)c1cccc(/C(C)=N/Nc2ccccc2Br)n1 = inactive

Outcome logged for O=C1C(Cl)C(c2ccccc2Cl)N1n1cnc2ccccc2c1=O (configuration not stated) in this assay:
inactive

Try the molecule CCC1(C)C=Cc2c(cc(OC)c3c(=O)c4ccccc4n(C)c23)O1 (configuration not stated)
inactive

Try the molecule CC1CNC(c2cccc(-c3nc(-c4cccc(C5=NC(C)CN5)c4)nc(N(C)C)n3)c2)=N1 (configuration not stated)
inactive

====

- System: TK-10
- assay-comment: NCI tumour cell line growth inhibition, 48 h
Calls of active or inactive are those of the source. No stated cut-off is given here; in the data, active = GI50 up to about 1.1 µM and inactive = higher.
Here the recorded GI50 is given for each entry.

Please review the following examples before continuing.
• COc1ccc(/C=C/c2cc(O)cc(OC3OC(CO)C(O)C(O)C3O)c2)cc1O (stereo not drawn) = > 100 µM (inactive)
• Cc1ccc(OCC2CO2)c(Br)c1 (stereo not drawn) = 30.3 µM (inactive)

What GI50 appears in the records for this compound with TK-10? C/C=C/C[C@@H](C)C(=O)C1C(=O)N[C@@H](C(C)C)C(=O)N(C)CC(=O)N(C)[C@@H](CC(C)C)C(=O)N[C@@H](C(C)C)C(=O)N(C)[C@@H](CC(C)C)C(=O)N[C@@H](C)C(=O)N[C@@H](C)C(=O)N(C)[C@@H](CC(C)C)C(=O)N(C)[C@@H](CC(C)C)C(=O)N(C)[C@@H](C(C)C)C(=O)N1C (stereo partly drawn)
6.1 µM (inactive)

====

Here the recorded GI50 is given for each entry.
- Tested on: HCT-116
- assay-comment: NCI tumour cell line growth inhibition, 48 h
Calls of active or inactive are those of the source. No stated cut-off is given here; in the data, active = GI50 up to about 1.1 µM and inactive = higher.

Please review the following examples before continuing.
* CN(C)/N=N/c1ccc(NC=O)cc1 | > 100 µM (inactive)
* CCc1ccc(COC(=O)C2=C(C)NC(C)=C(C(=O)OCc3ccc(CC)cn3)C2C2=COCCO2)nc1 | 16.3 µM (inactive)
* CSC1(SC2=NCCN2)SC2(NCCN2)S1 | 17 µM (inactive)
* CON(C)C(=O)C(Cc1ccccc1)NC(=O)OC(C)(C)C (stereo unspecified) | > 100 µM (inactive)
* O=[N+]([O-])c1ccc(C(Cl)C(Cl)c2ccc(C(Cl)C(Cl)c3ccc([N+](=O)[O-])cc3[N+](=O)[O-])cc2)c([N+](=O)[O-])c1 (stereo unspecified) | 0.931 µM (active)

I have this molecule here, C=CC(C)CCC(C/C=C(\C)CCCC(C)C)C(=C)CCCC(C)C (stereo unspecified) , and I need its recorded GI50.
> 100 µM (inactive)

====

- System: SN12C
- assay-comment: NCI tumour cell line growth inhibition, 48 h
The source made the active and inactive calls. No stated cut-off is given here; in the data, active = GI50 up to about 1.1 µM and inactive = higher.
metric-name: GI50

Please review the following examples before continuing.
* CCCN(CCCCC(NC(C)=O)C(=O)NCc1ccccc1)C(=O)N(C)N=O (stereo not given) | > 100 µM (inactive)
* O=C(Cc1ccccc1)Nc1nc2ccc(Cl)cc2c2nc(-c3ccco3)nn12 | > 100 µM (inactive)

What GI50 appears in the records for this compound with SN12C? `Cn1c(=O)c2nc3c(=O)n(C)c(=O)n(CC(N)=O)c3nc2n(C)c1=O`
> 100 µM (inactive)

Try the compound `Cc1cc2c(C(C)C)c(O)c(O)c(C=O)c2c(O)c1-c1c(C)cc2c(C(C)C)c(O)c(O)c(C=O)c2c1O`
5.09 µM (inactive)

Try the compound OC1(c2ccccc2)CCCCCCCCC(O)(c2ccccc2)CCCCCCCC1 (stereo not given)
> 100 µM (inactive)

Try the compound `CN(C)c1cccc(/C=C(\C#N)c2ccccc2)c1`
1.15 µM (inactive)

====

- Test system: RPMI-8226
- assay-comment: NCI tumour cell line growth inhibition, 48 h
Activity calls are given as the source filed them. No stated cut-off is given here; in the data, active = GI50 up to about 1.1 µM and inactive = higher.
Tick one outcome: active, inactive

Answered cases to consult:
• C/C(=N\n1c(Cc2ccccc2)n[nH]c1=O)c1ccccc1 = inactive
• Cc1ccc(S(=O)(=O)CNC(=S)CCCC(=S)NCS(=O)(=O)c2ccc(C)cc2)cc1 = inactive
• O=S(=O)(c1ccccc1)N1CCC1c1ccccc1 (centres undefined) = inactive
• N#C[C-](C#N)[n+]1ccc(Cl)cc1 = inactive
• CCCCCCCC(=O)OCC1OC(n2cc(F)c(=O)[nH]c2=O)C(N)C(O)C1O (centres undefined) = inactive

Outcome logged for CCCN(CCCCC(NC(C)=O)C(=O)NCc1ccccc1)C(=O)N(C)N=O (centres undefined) in this assay:
inactive

Try the compound `Cc1nc2ccccc2n1CCc1nc2ccccc2[nH]1`
inactive

Try the compound `Cc1cc(N(CCC#N)CCC#N)ccc1/C=C(\NC(=O)/C=C/c1ccccc1)C(=O)Nc1ccccc1Cl`
inactive
